Where do these numbers come from? They come from patent US20250179047A1.

- study-target: BCLXL WT (Homo sapiens (Human))
- Sequence (Q07817 other isoform, or with tags, fused parts or gaps): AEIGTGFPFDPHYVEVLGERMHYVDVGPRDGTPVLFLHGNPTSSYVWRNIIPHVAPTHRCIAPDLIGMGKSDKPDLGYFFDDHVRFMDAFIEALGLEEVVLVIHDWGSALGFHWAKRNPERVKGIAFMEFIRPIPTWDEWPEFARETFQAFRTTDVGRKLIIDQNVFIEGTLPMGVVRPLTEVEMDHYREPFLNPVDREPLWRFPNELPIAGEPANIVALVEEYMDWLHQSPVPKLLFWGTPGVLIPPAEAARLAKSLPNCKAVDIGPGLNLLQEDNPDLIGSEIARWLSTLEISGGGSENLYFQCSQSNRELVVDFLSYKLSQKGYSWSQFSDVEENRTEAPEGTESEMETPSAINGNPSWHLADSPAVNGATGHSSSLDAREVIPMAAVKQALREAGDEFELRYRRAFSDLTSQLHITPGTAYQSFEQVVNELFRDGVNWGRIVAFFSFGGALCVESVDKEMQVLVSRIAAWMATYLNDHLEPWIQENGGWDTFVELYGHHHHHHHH
- protocol-description: TR-FRET competitive binding assay, BCLXL WT
- condition: ratio Ki BCLxL / Ki BCL2 WT
Measured TR_FRET EKI BCLxL/WT selectivty ratio values are reported for all entries that follow.

{"smiles": "Cc1c(N(C(=O)c2cc(-c3cc4c(cc3C(=O)N3Cc5ccccc5C[C@H]3C)CN(C(=O)Cc3ccc(OCCN(C)C5COC5)cc3)CC4)n(C)c2C)c2ccc(O)cc2)cc(C#N)n1C", "study-target": "BCLXL WT (Homo sapiens (Human))", "TR_FRET EKI BCLxL/WT selectivty ratio": 19.2}
{"smiles": "Cc1c(N(C(=O)c2cc(-c3cc4c(cc3C(=O)N3Cc5ccccc5C[C@H]3CN3CCCCC3)CN(C(=O)Cc3ccc(COCC5CCOCC5)cc3)CC4)n(C)c2C)c2ccc(O)cc2)cc(C#N)n1C", "study-target": "BCLXL WT (Homo sapiens (Human))", "TR_FRET EKI BCLxL/WT selectivty ratio": 19.4}
{"smiles": "COc1ccc(N(C(=O)c2cc(-c3cc4c(cc3C(=O)N3Cc5ccccc5C[C@H]3CN3CCCCC3)CN(C(=O)Cc3ccc(OCCN5CCOCC5)cc3F)CC4)n(C)c2C)c2ccc(O)cc2)cc1C#N", "study-target": "BCLXL WT (Homo sapiens (Human))", "TR_FRET EKI BCLxL/WT selectivty ratio": 171.4}
{"smiles": "Cc1c(N(C(=O)c2cc(-c3cc4c(cc3C(=O)N3Cc5ccccc5C[C@H]3CN3CCCCC3)CN(C(=O)Cc3ccc(OCCN5CCOC(C)(C)C5)cc3)CC4)n(C)c2C)c2ccc(O)cc2)cc(C#N)n1C", "study-target": "BCLXL WT (Homo sapiens (Human))", "TR_FRET EKI BCLxL/WT selectivty ratio": 38.5}
{"smiles": "COc1ccc(N(C(=O)c2cc(-c3cc4c(cc3C(=O)N3Cc5ccccc5C[C@H]3C)CN(C(=O)Cc3ccc(OCCN5CCOCC5)cc3)CC4)n(C)c2C)c2ccc(F)cc2)cc1C#N", "study-target": "BCLXL WT (Homo sapiens (Human))", "TR_FRET EKI BCLxL/WT selectivty ratio": 291.1}
{"smiles": "Cc1c(N(C(=O)c2cc(-c3cc4c(cc3C(=O)N3Cc5ccccc5C[C@H]3CCN3CCCCC3)CN(C(=O)Cc3ccc(OCCN5CCOCC5)cc3F)CC4)n(C)c2C)c2ccc(O)cc2)cc(C#N)n1C", "study-target": "BCLXL WT (Homo sapiens (Human))", "TR_FRET EKI BCLxL/WT selectivty ratio": 52.4}
